Target: T1, UNK ZnF1-3 (human, UniProt Q9C0B0 31-174)
T1 sequence: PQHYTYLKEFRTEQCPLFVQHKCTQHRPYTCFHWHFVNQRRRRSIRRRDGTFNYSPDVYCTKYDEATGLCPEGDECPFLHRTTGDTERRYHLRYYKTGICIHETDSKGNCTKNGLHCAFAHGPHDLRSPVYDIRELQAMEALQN
Assay: nsRBNS (natural sequence RNA bind-n-seq); RBNS binding buffer (assumed for nsRBNS): 25 mM Tris pH 7.5, 150 mM KCl, 3 mM MgCl2, 0.01% Triton X-100, 500 ug/ml BSA, 20 U/ml SUPERase-In, 4 C; UNK is unkempt and MSI1 is Musashi-1; names of the RNAs are library labels; protein concentration not given here; high values mean tight binding
The full ranking holds about 24,000 sequences; the median of “enrichment r” is about 0.99, and the highest 2% start at about 3.7. Shown is part of a subset that was picked to be rich in the highest values.
MEASURE_NAME: binding signal (enrichment R)

BINDER	MEASUREMENT_UNITS	NUMERIC_RESULT
52190027_52197400_608_3pUTR_ENSMUSG00000020402_ENSMUST00000102758|mouse|control|control (ssRNA) RNA: GGGAGUUCUACAGUCCGACGAUCGUUGAUGUGCUCCCUCUUGUACCCUGUCUUGAUUUUAGCAUUUUUUUUCCCAGUGUUCGGCGAGAAUGACGAAUCAAAGGUGAGCUUCAGUCCACGAGCAAGCUGGUCUUCCACAGUGAUCAACAGAGGAUUGAGCAUCA	enrichment R	0.961
chr13:100201144:100201145:-_ENSMUSG00000052727_ENSMUST00000064762|mus_hu|FALSE|FALSE (ssRNA) RNA: GGGAGUUCUACAGUCCGACGAUCCUCCUCCAUAGGUGGUAUCUUAUGUGAUAAACUGGAGUCCUGCAUGUCAGAAGGACUGUAGUCCACUUCAGUUGGCCCAUUUUCAGUGAUGUGAAGCACGCCUGCACCCACUGUAGGGUGCAACAGAGGAUUGAGCAUCA	enrichment R	0.585
49527313_49535755_592_CDS_ENSMUSG00000026764_ENSMUST00000028102|mouse|control|control (ssRNA) RNA: GGGAGUUCUACAGUCCGACGAUCCAUGGUAUGAGUUUUUCCUGAUGAAGUCUGCCCAUAUGCAAAAAUUGUUCCAUUAUAACCCUCAAGGACAUCUUUGACAAUCUGCUUUGCACAGGCAUUGUAGACCUGCUCCUGGGUUGUCAACAGAGGAUUGAGCAUCA	enrichment R	0.621
chr2:49628383:49628384:+_ENSMUSG00000026764_ENSMUST00000028102|mus_hu|FALSE|FALSE (ssRNA) RNA: GGGAGUUCUACAGUCCGACGAUCAUAAGCUUUGCAAAACCUGCCCCACAAGGACCCUUUUAUCAGACCGCAAAUAAUGGUAGAGCAGGUAUAUUGGGCUGGCACUGAUAACAAAAUUAAAGAAUGAAAAAAAUUUAAACAAAUCAACAGAGGAUUGAGCAUCA	enrichment R	10
chr7:141445308:141445309:+_ENSG00000106028_ENST00000265304|hu_hu|hu_hu_hu_mus_False|48_68 (ssRNA) RNA: GGGAGUUCUACAGUCCGACGAUCUAUGAUUGUUGUUGCUUGCCGCCUCACAUUGUUUUUAUCCAUGUAUUCACCAUAGUCCACUUUCCCUUCCAAAAAUAUACGAGCCCCCUUUUUCACAUACUGAUAUGCCACAUCUCUGAGCAACAGAGGAUUGAGCAUCA	enrichment R	0.799
122452171_122453414_3711_CDS_ENSMUSG00000034602_ENSMUST00000073792|mouse|control|control (ssRNA) RNA: GGGAGUUCUACAGUCCGACGAUCUCGGUCCAGUAGAUGAAAGAGUACCUUCCAAAUAACGGUGUGCCAGGUGGAGUGCUGCAGCAGGGUCCCGUGCGCUCCGAUCGUGGAGAACAGGGUCUGCCCUGCGCUCUUCCUCACGGCCAACAGAGGAUUGAGCAUCA	enrichment R	0.594
19477749_19479453_500_CDS_ENSMUSG00000028228_ENSMUST00000029885|mouse|control|control (ssRNA) RNA: GGGAGUUCUACAGUCCGACGAUCUCUGGCUUCCAUUUCAAACAAUACCACUCUGUUAUCCUUUAUUUCUUCUGCUGAAAUCGUAAUACUCCCUUUCCCUGCAGGUUUGCCAUUUUUGAGCACCAGUGGUCGAGUUAGCUUCUUCAACAGAGGAUUGAGCAUCA	enrichment R	0.645
chr9:37357388:37357389:+_ENSG00000147905_ENST00000336755|hu_hu|FALSE|FALSE (ssRNA) RNA: GGGAGUUCUACAGUCCGACGAUCUUGGACACAGAGAAUUGAGAUCUCCAUGGAUAUUCAGUAACUCUAGGAAUGGCUGAAAUUAAAAAAACAAAACCAAAAACUCACUUUAUUUAAUCAUAGAUAAUAAACACAGUGCCAGAACAACAGAGGAUUGAGCAUCA	enrichment R	1.15
chr6:136599331:136599332:-_ENSG00000029363_ENST00000527536|hu_mus|motif|central (ssRNA) RNA: GGGAGUUCUACAGUCCGACGAUCGGGGGCAUCUGAGCAUGAUGAACUCUGACUGGGUGGUGUAGCAAUAGGUGAAGGACGGUGAGGUGACCUUGGACUAUUAUCAUAAGCUGAAAGGCCAGGCCAAAUAUCACCAGAAGUAGCCAACAGAGGAUUGAGCAUCA	enrichment R	1.72
chr15:63448706:63448707:-_ENSG00000185088_ENST00000411926|hu_hu|FALSE|FALSE (ssRNA) RNA: GGGAGUUCUACAGUCCGACGAUCUGAUCUUGUAGCAACCUGGACAUUUUACAUCCAUAAAGUAAGAAUUUGGACUUUGUACUAGGCGUUUCUUUUUAUGUUUUUUCUUUUCCUCUUCCAAGGACGGAUGUAGUAAAUCUCUAGCAACAGAGGAUUGAGCAUCA	enrichment R	0.655
chr2:49628351:49628352:+_ENSMUSG00000026764_ENSMUST00000028102|mus_hu|FALSE|FALSE (ssRNA) RNA: GGGAGUUCUACAGUCCGACGAUCACCGCAAAUAAUGGUAGAGCAGGUAUAUUGGGCUGGCACUGAUAACAAAAUUAAAGAAUGAAAAAAAUUUAAACAAAUGCAAAAUUGCCAUCUUCACAAAAUAAAUACUUCAAUAGAAUUCAACAGAGGAUUGAGCAUCA	enrichment R	4.72
chrX:35959125:35959126:+_ENSMUSG00000000355_ENSMUST00000000365|mus_mus|FALSE|FALSE (ssRNA) RNA: GGGAGUUCUACAGUCCGACGAUCAUUUGCUCCACUGAGUACAAAUUUGAUGGCUCCUUUAUCAACCUGCUGAUGUGGCAAGAUAAAAGGAUAUUUAUGAAGUAAUCUUAAAGUUGGAUAAAAAGGCCCUUCUCUUUGUCUAAACAACAGAGGAUUGAGCAUCA	enrichment R	0.981
1003750_1005305_5821_CDS_ENSG00000060237_ENST00000535572|human|control|control (ssRNA) RNA: GGGAGUUCUACAGUCCGACGAUCAUGAACAGACUUUGCAUCUUCUGACUUAUUUUUACCCUCUUUCUGGGCACCGUCUGCUGCAACAGAAACCUGAAAUCGUCCCAUCUUAAAAACACCAGCUCCUGAACUAGUUGCUAGGACCAACAGAGGAUUGAGCAUCA	enrichment R	1.34

meta.source: paper PMC12136788
